target: T1, recombinant human heat shock cognate 71 kDa protein (Hsc70) (human, UniProt P11142 1-646, limits assumed); assay: SEC of peptide-Hsc70 mixture; peptide:Hsc70 molar ratio 4:1
T1 construct: also called rhHsc70; human Hsc70
T1 sequence (P11142 whole entry): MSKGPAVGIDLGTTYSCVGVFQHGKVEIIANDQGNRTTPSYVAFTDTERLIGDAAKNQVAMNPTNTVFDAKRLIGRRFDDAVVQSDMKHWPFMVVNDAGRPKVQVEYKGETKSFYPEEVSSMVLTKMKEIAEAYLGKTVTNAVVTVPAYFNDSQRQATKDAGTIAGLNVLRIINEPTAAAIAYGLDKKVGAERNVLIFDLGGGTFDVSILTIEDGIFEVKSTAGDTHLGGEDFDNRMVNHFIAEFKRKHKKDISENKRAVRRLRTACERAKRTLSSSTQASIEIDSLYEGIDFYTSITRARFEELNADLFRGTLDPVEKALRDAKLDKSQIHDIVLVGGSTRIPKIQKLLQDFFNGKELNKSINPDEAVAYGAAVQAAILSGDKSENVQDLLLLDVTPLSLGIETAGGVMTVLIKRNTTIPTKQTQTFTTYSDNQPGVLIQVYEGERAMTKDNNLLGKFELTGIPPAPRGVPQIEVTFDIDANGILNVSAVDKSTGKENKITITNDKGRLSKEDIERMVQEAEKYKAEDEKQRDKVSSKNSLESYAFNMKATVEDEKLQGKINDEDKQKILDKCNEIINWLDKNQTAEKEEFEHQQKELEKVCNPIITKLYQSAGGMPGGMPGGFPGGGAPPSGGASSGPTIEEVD
I'd appreciate it if you could supply Percent complexation with Hsc70 values for the items below.
All answers are understood in %, so give the number only.

Measured Percent complexation with Hsc70 of FFRKNWIRITW (Synthetic peptide) [PEP013] : 87.7

Measured Percent complexation with Hsc70 of FFRKNRLLLTG (Synthetic peptide) [PEP002] : 78.8

Measured Percent complexation with Hsc70 of FFRKNWLRLTW (Synthetic peptide) [PEP006] : 91.8

Measured Percent complexation with Hsc70 of FFRKNWLRLKW (Synthetic peptide) [PEP011] : 90.4

Measured Percent complexation with Hsc70 of FFRKNLLRWTG (Synthetic peptide) [PEP004] : 75.3

Measured Percent complexation with Hsc70 of FRNWLRLTW (Synthetic peptide) [PEP028] : 87.5

Measured Percent complexation with Hsc70 of FFRKNWLRLFW (Synthetic peptide) [PEP010] : 86.5

Measured Percent complexation with Hsc70 of FFRKNFLRLTF (Synthetic peptide) [PEP027] : 90
